Just for reference, patent US20210301005A1 is where these values come from.

- study.target: T1, human TGFβ2, mature receptor-binding domain (human, UniProt P09858 303-414 (pig entry), The mature TGFβ2 is a disulfide-linked homodimer of this 112-residue chain. The 4A11 epitope spans both monomers (p-1207).)
- T1 construct: Peprotech; also called TGFb2
- T1 sequence: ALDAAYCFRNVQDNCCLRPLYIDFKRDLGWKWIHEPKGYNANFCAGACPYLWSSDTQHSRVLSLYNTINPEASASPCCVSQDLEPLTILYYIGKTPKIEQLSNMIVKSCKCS
- test.protocol: BIAcore T200
pKd: −log10 of the molar value.
Below, each entry is listed with its recorded pKd.
assay.endpoint: pKd

binder="h4A11.v7.4 (antibody, V domains shown) VH: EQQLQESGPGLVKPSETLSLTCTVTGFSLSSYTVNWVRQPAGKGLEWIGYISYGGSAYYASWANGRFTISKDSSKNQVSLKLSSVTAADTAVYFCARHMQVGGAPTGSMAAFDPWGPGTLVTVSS VL: EIVLTQSPGTLSLSPGERATLSCQSSQSVYNNNYLSWFQQKPGQPPRLLIYGASTLTSGVPDRFSGSGSGTDFTLTISRLEPEDFAVYYCAGGYSGSSDKYAFGGGTKVEIK" measured_value=11.19
binder="h4A11.v7.10 (antibody, human IgG1, kappa, N297G, V domains shown) VH: EQQLQESGPGLVKPSETLSLTCTVTGFSLSSYTVNWVRQPAGKGLEWIGYISYGGSAYYASWANGRVTISKDSSKNQVSLKLSSVTAADTAVYFCARHMQVGGAPTGSMAAFDPWGPGTLVTVSS VL: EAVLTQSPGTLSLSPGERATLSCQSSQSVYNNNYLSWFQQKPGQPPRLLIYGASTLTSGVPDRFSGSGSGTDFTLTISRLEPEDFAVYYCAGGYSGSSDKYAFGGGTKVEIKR" measured_value=11.25
binder="h4A11.v7.14 (antibody, human IgG1, kappa, N297G, V domains shown) VH: EQQLQESGPGLVKPSETLSLTCTVTGFSLSSYTVNWVRQPAGKGLEWIGYISYGGSAYYASWANGRFTISKDSSKNQVSLKLSSVTAADTAVYYCARHMQVGGAPTGSMAAFDPWGPGTLVTVSS VL: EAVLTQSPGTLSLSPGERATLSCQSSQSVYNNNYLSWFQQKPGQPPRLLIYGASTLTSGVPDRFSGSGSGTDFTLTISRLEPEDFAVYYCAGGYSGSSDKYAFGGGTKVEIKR" measured_value=11.31
